# target entity: Neuronal acetylcholine receptor; alpha3/beta2 (Rattus norvegicus, UniProt P04757+P12390)
# Sequence (P04757 whole entry): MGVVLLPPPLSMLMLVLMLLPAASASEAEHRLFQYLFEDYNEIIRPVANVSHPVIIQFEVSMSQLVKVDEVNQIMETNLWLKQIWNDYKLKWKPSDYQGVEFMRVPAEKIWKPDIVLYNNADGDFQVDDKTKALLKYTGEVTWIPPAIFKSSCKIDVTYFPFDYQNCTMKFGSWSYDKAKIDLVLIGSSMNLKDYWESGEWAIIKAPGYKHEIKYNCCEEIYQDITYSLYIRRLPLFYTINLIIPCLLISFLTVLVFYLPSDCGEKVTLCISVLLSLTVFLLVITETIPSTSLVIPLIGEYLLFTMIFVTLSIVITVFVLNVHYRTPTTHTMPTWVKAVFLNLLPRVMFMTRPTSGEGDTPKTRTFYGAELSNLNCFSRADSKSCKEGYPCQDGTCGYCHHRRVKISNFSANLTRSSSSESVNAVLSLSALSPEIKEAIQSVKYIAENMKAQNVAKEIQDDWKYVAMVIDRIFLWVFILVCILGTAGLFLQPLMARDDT
# Sequence (P12390 whole entry): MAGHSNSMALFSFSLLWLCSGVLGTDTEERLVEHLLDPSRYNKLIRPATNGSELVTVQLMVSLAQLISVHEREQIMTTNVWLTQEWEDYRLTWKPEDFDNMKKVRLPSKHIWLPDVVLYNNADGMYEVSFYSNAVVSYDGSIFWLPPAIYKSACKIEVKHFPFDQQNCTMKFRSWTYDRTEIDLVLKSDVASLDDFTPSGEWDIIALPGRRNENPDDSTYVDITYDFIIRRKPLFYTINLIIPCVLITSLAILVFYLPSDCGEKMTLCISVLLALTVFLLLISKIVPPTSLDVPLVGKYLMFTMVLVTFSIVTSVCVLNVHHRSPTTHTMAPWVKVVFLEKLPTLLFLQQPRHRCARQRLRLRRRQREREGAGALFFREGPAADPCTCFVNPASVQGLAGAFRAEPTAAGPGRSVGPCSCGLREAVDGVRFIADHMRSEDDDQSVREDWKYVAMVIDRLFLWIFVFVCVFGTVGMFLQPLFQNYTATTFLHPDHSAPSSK
# assay overview: Displacement of [3H]epibatidine from rat alpha3beta2 nAChR expressed in HEK293 cells
Form field: Ki (one value per entry).

[
  {
    "molecule": "CN1[C@@H]2CC[C@@H]1[C@@H](c1cncc(-c3ccnc(F)c3)c1)C2 (stereo in doubt; (-)-6a)",
    "target entity": "Neuronal acetylcholine receptor; alpha3/beta2 (Rattus norvegicus, UniProt P04757+P12390)",
    "Ki": "0.13 nM"
  },
  {
    "molecule": "[18F]c1ncccc1OC[C@@H]1CCN1",
    "target entity": "Neuronal acetylcholine receptor; alpha3/beta2 (Rattus norvegicus, UniProt P04757+P12390)",
    "Ki": "3.02 nM"
  },
  {
    "molecule": "CN1C2CCC1C(c1cncc(-c3ccc(F)nc3)c1)C2 (single isomer, unassigned; (-))",
    "target entity": "Neuronal acetylcholine receptor; alpha3/beta2 (Rattus norvegicus, UniProt P04757+P12390)",
    "Ki": "0.093 nM"
  },
  {
    "molecule": "CN1[C@@H]2CC[C@@H]1[C@@H](c1cncc(-c3cccc(F)n3)c1)C2 (stereo in doubt; (-)-6c)",
    "target entity": "Neuronal acetylcholine receptor; alpha3/beta2 (Rattus norvegicus, UniProt P04757+P12390)",
    "Ki": "4 nM"
  },
  {
    "molecule": "CN1[C@@H]2CC[C@@H]1[C@@H](c1cncc(-c3cccnc3F)c1)C2 (stereo in doubt; (-)-6b)",
    "target entity": "Neuronal acetylcholine receptor; alpha3/beta2 (Rattus norvegicus, UniProt P04757+P12390)",
    "Ki": "0.68 nM"
  }
]

Every entry's value here was drawn from ChEMBL document CHEMBL1155821.
